Below: a set of entries, each annotated with reported composite z-score.
- Tested on: Chordin-like protein 2 (CHRDL2)
- EXPERIMENTAL_PROTOCOL: compounds binding chordin-like 2 – biochemical, small-molecule microarray, 635 nm fluorescence, primary screen (AID 1126);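 also: printed compound slides probed with Chrdl2 protein at 4 µg/mL for 1 h at 4 C; score merges 667 nm emission intensity with signal to noise over three replicate slides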
- RUN_CONDITIONS: fluorescence 635 nm, higher = more signal
Provide a numeric answer; units are not to be included.

Reference set, count: 10
{"MOLECULE": "C=CCNC(=O)[C@H]1[C@@H]2C(=O)O[C@@H](c3ccccc3)[C@@H](c3ccccc3)N2[C@@H](c2ccc(O)cc2)[C@]12C(=O)Nc1ccc(C#CCCO)cc12", "composite z-score": -0.559}
{"MOLECULE": "COC(=O)[C@@]1(Cc2ccc(OC)cc2)[C@H]2c3cc(C(=O)N4CCCC4)n(Cc4nc5ccccc5[nH]4)c3C[C@H]2CN1C(=O)c1ccccc1", "composite z-score": -0.45}
{"MOLECULE": "COc1cc(OC)c(C(O)C2C=CC3C(=O)NC(=O)C3N2Nc2ccccn2)cc1Br (centres undefined)", "composite z-score": 1.02}
{"MOLECULE": "Cc1ccc(S[C@]2(C(=O)O)CC(=O)N(Cc3ccccc3C(F)(F)F)[C@@H]2c2ccc(CO)cc2I)cc1", "composite z-score": -0.673}
{"MOLECULE": "CCCCN1CC=CC23O[C@@H]4C=CCOC(=O)[C@@H]4[C@H]2C(=O)N(CCCCCCO)[C@@H]3C1=O (some centres undefined)", "composite z-score": -1.83}
{"MOLECULE": "Cc1ccc(C2C3C(=O)CC4C(=O)N(c5ccccc5)C(=O)C4C3CN2S(=O)(=O)c2ccc(C)cc2)cc1 (centres undefined)", "composite z-score": -0.479}
{"MOLECULE": "COCCOC(=O)N1C(=O)[C@@]2(c3cc(C#CC4=CCCCC4)ccc31)[C@H](C(N)=O)[C@H]1C(=O)O[C@H](c3ccccc3)[C@H](c3ccccc3)N1[C@@H]2c1ccc(O)cc1", "composite z-score": 0.302}
{"MOLECULE": "COCCOC(=O)N1C(=O)[C@@]2(c3cc(C#CC4=CCCCC4)ccc31)[C@H](c1ccc(OCCO)cc1)N1[C@H](c3ccccc3)[C@H](c3ccccc3)OC(=O)[C@H]1[C@@H]2C(=O)N1CCc2cc(OC)c(OC)cc2C1", "composite z-score": 0.839}
{"MOLECULE": "C[N+](C)(C)CCCC[C@@H]1NC(=O)[C@H]2C[C@@H](C(=O)NCCCCCCNC(=O)CS)[C@@H](c3ccc(O)cc3)N2C1=O", "composite z-score": 0.0077}
{"MOLECULE": "CCOC(=O)C1=CC[C@@H](c2ccc(C(F)(F)F)cc2)N(S(=O)(=O)c2ccc(C)cc2)[C@H]1c1ccccc1", "composite z-score": -0.863}

Switching to the query record.
Value of measured composite z-score for the entry COC(=O)[C@@]1(Cc2ccccc2)[C@H]2c3cc(C(=O)N4CCCC4)n(Cc4c(CO)[nH]cc(C)c4=O)c3C[C@H]2CN1C(=O)c1ccccc1 : -0.174

====

- Test system: XIP peptide (Xip251-270) binding
- EXPERIMENTAL_PROTOCOL: XIP fragment 251-270 binding compounds – biochemical, small-molecule microarray, fluorescence 635/667 nm, 0.1 µg/mL protein, primary screen (AID 1182)
- RUN_CONDITIONS: fluorescent protein binding, 635 nm, higher = more signal, called active from +8 up or from −8 down
Activity calls are given as the source filed them.
PROPERTY_MEASURED: composite z-score

Reference set, count: 10
{"COMPOUND": "CC(c1ccccc1)C(O)C1C=CC2C(=O)N(C)C(=O)C2N1NC(=O)OC(C)(C)C (centres undefined)", "MEASURED": "2.04 (inactive)"}
{"COMPOUND": "COC(=O)[C@@]1(Cc2ccc(OC)cc2)[C@H]2c3cc(C(=O)N4CCCC4)n(CCCNc4ncc(C(F)(F)F)cc4Cl)c3C[C@H]2CN1C(=O)c1ccccc1", "MEASURED": "-0.546 (inactive)"}
{"COMPOUND": "C#CCN1[C@H](/C=C/C2CC2)[C@H](Cc2ccccc2)OC(=O)[C@@H]1Cc1ccccc1", "MEASURED": "1.42 (inactive)"}
{"COMPOUND": "COc1ccccc1CN1C(=O)c2ccccc2[C@@H](C(=O)NCc2ccccc2)[C@@H]1c1ccc(CO)cc1", "MEASURED": "0.737 (inactive)"}
{"COMPOUND": "COc1ccc(C#Cc2ccc3c(c2)[C@]2(C(=O)N3)[C@H](c3ccc(O)cc3)N3[C@H](c4ccccc4)[C@H](c4ccccc4)OC(=O)[C@H]3[C@@H]2C(=O)N2CCc3cc(OC)c(OC)cc3C2)cc1", "MEASURED": "0.409 (inactive)"}
{"COMPOUND": "COC(=O)[C@@]1(Cc2ccc(OC)cc2)[C@H]2c3cc(C(=O)N4CCCC4)n(CCSCCO)c3C[C@H]2CN1C(=O)c1ccccc1", "MEASURED": "0.0308 (inactive)"}
{"COMPOUND": "CCOC(=O)C[C@H]1[C@H](OC(=O)c2cc3ccccc3oc2=O)[C@@H](NC(=O)CC(C)C)c2cc(OCCCO)ccc2N1C(=O)c1ccccc1", "MEASURED": "-0.131 (inactive)"}
{"COMPOUND": "COC(=O)C(CC#Cc1ccc2c(c1)[C@]1(C(=O)N2)[C@H](c2ccc(O)cc2)N2[C@H](c3ccccc3)[C@H](c3ccccc3)OC(=O)[C@H]2[C@@H]1C(=O)N1CCN(c2ncccn2)CC1)C(=O)OC", "MEASURED": "0.655 (inactive)"}
{"COMPOUND": "NCCCCCCNC(=O)[C@H]1C[C@H]2C(=O)N[C@@H](Cc3ccccc3)C(=O)N2[C@H]1c1cccc(OCCO)c1", "MEASURED": "1.16 (inactive)"}
{"COMPOUND": "[N-]=[N+]=NCc1ccccc1[C@@H]1OC(c2ccc(OCCCO)cc2)=N[C@]1(CCS(=O)(=O)c1ccccc1)C(N)=O", "MEASURED": "0.57 (inactive)"}

Value of measured composite z-score for the entry CC(C)NC(=O)[C@@]1(Cc2ccccc2I)c2ccccc2C(=O)N(Cc2ccccc2Cl)[C@H]1c1ccc(CO)cc1 : 0.705 (inactive)

Value of measured composite z-score for the entry COC(=O)[C@@]1(CCC(=O)OC(C)(C)C)N=C(c2ccc(OCCCO)cc2)O[C@H]1c1ccccc1 : 0.485 (inactive)

Value of measured composite z-score for the entry COc1cc2c(cc1O)C=[N+](Cc1cc3c(cc1Br)OCO3)CC2 : -0.105 (inactive)

Value of measured composite z-score for the entry CC(C)CNC(=O)[C@@]1(Cc2ccccc2I)c2ccccc2C(=O)N(Cc2ccccc2C(F)(F)F)[C@H]1c1ccc(CO)cc1 : 1.43 (inactive)
